- Test system: MCF7
- Method Notes: Antiproliferative activity against human MCF7 cells assessed as inhibition of cell viability after 72 hrs by MTT assay
- Type: functional, cell-based
- Condition Info: MCF7, 72 h
Property: IC50 (µM)
One number for each entry, in µM.

Here are 10 compounds together with their reported answers.
COC(=O)C1=C(N)Oc2cc(O)ccc2C1c1ccc(OCCN2CCCCC2)cc1 (stereo unspecified) = 16.2
CCCCOC(=O)C1=C(N)Oc2cc(O)ccc2C1c1ccc(OCCN2CCCCC2)cc1 (stereo unspecified) = 31.8
COC(=O)C1=C(N)Oc2cc(O)ccc2C1c1ccc(OCCN2CCCC2)cc1 (stereo unspecified) = 19.6
CC(C)(C)OC(=O)C1=C(N)Oc2cc(O)ccc2C1c1ccc(OCCN2CCCC2)cc1 (stereo unspecified) = 10
CCOC(=O)C1=C(N)Oc2cc(O)ccc2C1c1ccc(OCc2ccccc2)cc1 (stereo unspecified) = 4.5
COC(=O)C1=C(N)Oc2cc(O)ccc2C1c1ccccc1 (stereo unspecified) = 10.8
CCOC(=O)C1=C(N)Oc2cc(O)ccc2C1c1ccc(OCCN2CCCC2)cc1 (stereo unspecified) = 27.3
CCCCOC(=O)C1=C(N)Oc2cc(O)ccc2C1c1ccc(OCCN2CCCC2)cc1 (stereo unspecified) = 7.73
CCOC(=O)C1=C(N)Oc2cc(O)ccc2C1c1ccc(OCCN2CCOCC2)cc1 (stereo unspecified) = 18.8
N#CC1=C(N)Oc2cc(O)ccc2C1c1ccc(OCCN2CCCCC2)cc1 (stereo unspecified) = 23.2

Below are some compounds; for each one, tell me its IC50.
1. CC(C)(C)OC(=O)C1=C(N)Oc2cc(O)ccc2C1c1ccc(OCCN2CCCCC2)cc1 (stereo unspecified)
2. N#CC1=C(N)Oc2cc(O)ccc2C1c1ccc(OCCN2CCOCC2)cc1 (stereo unspecified)
3. CCOC(=O)C1=C(N)Oc2cc(O)ccc2C1c1ccc(OCCN2CCCCC2)cc1 (stereo unspecified)

Out:
1: 2.65; 2: 35.3; 3: 8.75

* * *

- Target Under Test: Estrogen receptor beta (Homo sapiens)
- Method Notes: Displacement of fluorescent estrogen ligand from recombinant human full length untagged ERbeta expressed in baculovirus infected insect cells incubated in dark for 2 hrs by Beacon single-tube fluorescent polarization assay
Can you tell me log10(IC50) for the items I'm about to list?
Annotation: log10 of IC50, µM basis.

CCCCOC(=O)C1=C(N)Oc2cc(O)ccc2C1c1ccc(OCCN2CCCC2)cc1 (stereo not drawn) = 0.82

Below are some compounds; for each one, tell me its log10(IC50).
1. CCOC(=O)C1=C(N)Oc2cc(O)ccc2C1c1ccccc1 (stereo not drawn)
2. COC(=O)C1=C(N)Oc2cc(O)ccc2C1c1ccc(OCCN2CCCC2)cc1 (stereo not drawn)
3. N#CC1=C(N)Oc2cc(O)ccc2C1c1ccccc1 (stereo not drawn)

Out:
[-0.21, -0.46, 0.92]

Below are some compounds; for each one, tell me its log10(IC50).
1. CC(C)(C)OC(=O)C1=C(N)Oc2cc(O)ccc2C1c1ccc(OCCN2CCCC2)cc1 (stereo not drawn)
2. COC(=O)C1=C(N)Oc2cc(O)ccc2C1c1ccc(OCCN2CCCCC2)cc1 (stereo not drawn)

Out:
1. -0.17
2. -0.66

Below are some compounds; for each one, tell me its log10(IC50).
1. N#CC1=C(N)Oc2cc(O)ccc2C1c1ccc(OCCN2CCCCC2)cc1 (stereo not drawn)
2. CCCCOC(=O)C1=C(N)Oc2cc(O)ccc2C1c1ccc(OCCN2CCCCC2)cc1 (stereo not drawn)

Out:
1. 1.02
2. 0.37

* * *

Can you tell me pIC50 for the items I'm about to list?
- Target Under Test: UniProt:P03372
- Method Notes: Displacement of fluorescent estrogen ligand from recombinant human full length untagged ERalpha expressed in baculovirus infected insect cells incubated in dark for 2 hrs by Beacon single-tube fluorescent polarization assay
Answers are plain numbers, as −log10 of the molar value.

CC(C)(C)OC(=O)C1=C(N)Oc2cc(O)ccc2C1c1ccc(OCCN2CCCCC2)cc1 (stereo not given) = 7.05

Below are some compounds; for each one, tell me its pIC50.
1. CC(C)(C)OC(=O)C1=C(N)Oc2cc(O)ccc2C1c1ccc(OCCN2CCCC2)cc1 (stereo not given)
2. N#CC1=C(N)Oc2cc(O)ccc2C1c1ccc(OCCN2CCCCC2)cc1 (stereo not given)
3. CCOC(=O)C1=C(N)Oc2cc(O)ccc2C1c1ccc(OCc2ccccc2)cc1 (stereo not given)
4. CCOC(=O)C1=C(N)Oc2cc(O)ccc2C1c1ccc(OCCN2CCOCC2)cc1 (stereo not given)
5. CCCCOC(=O)C1=C(N)Oc2cc(O)ccc2C1c1ccc(OCCN2CCCCC2)cc1 (stereo not given)
6. COC(=O)C1=C(N)Oc2cc(O)ccc2C1c1ccc(O)cc1 (stereo not given)
7. CCOC(=O)C1=C(N)Oc2cc(O)ccc2C1c1ccccc1 (stereo not given)
8. COC(=O)C1=C(N)Oc2cc(O)ccc2C1c1ccc(OCCN2CCCC2)cc1 (stereo not given)

Out:
1: 8.00; 2: 5.83; 3: 4.39; 4: 6.66; 5: 7.52; 6: 6.10; 7: 5.63; 8: 7.70

* * *

Can you tell me remaining at 0.5 h for the items I'm about to list?
- Method Notes: Chemical stability of the compound in phosphate buffer at pH 4 assessed as compound remaining after 30 mins by HPLC method
- Format: physicochemical
- Condition Info: read-out: Stability
One number for each entry, in %.

CCOC(=O)C1=C(N)Oc2cc(O)ccc2C1c1ccc(OCCN2CCCCC2)cc1 (configuration not stated) = 27

In: Fill blank: measured remaining at 0.5 h of the compound CCCCOC(=O)C1=C(N)Oc2cc(O)ccc2C1c1ccc(OCCN2CCCCC2)cc1 (configuration not stated) is ____.
Out: 32

* * *

- Target Under Test: Estrogen receptor beta (Homo sapiens, UniProt Q92731)
- Sequence (Q92731 whole entry): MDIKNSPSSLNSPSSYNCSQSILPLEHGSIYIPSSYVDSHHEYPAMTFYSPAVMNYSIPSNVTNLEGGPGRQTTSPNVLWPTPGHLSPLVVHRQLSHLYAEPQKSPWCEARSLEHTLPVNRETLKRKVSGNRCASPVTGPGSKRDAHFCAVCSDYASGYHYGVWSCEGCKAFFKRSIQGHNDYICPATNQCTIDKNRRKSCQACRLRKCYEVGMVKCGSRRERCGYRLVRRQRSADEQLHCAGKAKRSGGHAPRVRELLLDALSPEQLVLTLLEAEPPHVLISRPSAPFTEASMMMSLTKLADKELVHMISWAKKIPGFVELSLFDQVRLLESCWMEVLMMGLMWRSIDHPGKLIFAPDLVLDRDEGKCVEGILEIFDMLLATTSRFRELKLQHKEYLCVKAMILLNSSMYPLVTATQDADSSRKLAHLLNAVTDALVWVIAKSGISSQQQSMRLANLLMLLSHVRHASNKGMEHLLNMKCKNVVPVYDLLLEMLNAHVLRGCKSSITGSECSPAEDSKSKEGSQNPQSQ
- Method Notes: Displacement of fluorescent estrogen ligand from recombinant human full length untagged ERbeta expressed in baculovirus infected insect cells incubated in dark for 2 hrs by Beacon single-tube fluorescent polarization assay
With a cut-off of 2000 nM, any IC50 strictly below it is called 1 (yes); any IC50 meeting it or above is called 0 (no).

Field: example entries. Status: answers known.
COC(=O)C1=C(N)Oc2cc(O)ccc2C1c1ccc(OCCN2CCOCC2)cc1 (stereo not given) = 1 (yes)
COC(=O)C1=C(N)Oc2cc(O)ccc2C1c1ccccc1 (stereo not given) = 1 (yes)
CCOC(=O)C1=C(N)Oc2cc(O)ccc2C1c1ccc(OCCN2CCCC2)cc1 (stereo not given) = 0 (no)
N#CC1=C(N)Oc2cc(O)ccc2C1c1ccc(OCCN2CCCC2)cc1 (stereo not given) = 0 (no)
CC(C)(C)OC(=O)C1=C(N)Oc2cc(O)ccc2C1c1ccc(OCCN2CCCCC2)cc1 (stereo not given) = 1 (yes)
N#CC1=C(N)Oc2cc(O)ccc2C1c1ccc(OCCN2CCOCC2)cc1 (stereo not given) = 0 (no)

In: Hello, I'm reviewing records and need to know if IC50 of COC(=O)C1=C(N)Oc2cc(O)ccc2C1c1ccc(O)cc1 (stereo not given) is below 2000 nM. Could you check?
Out: 0 (no)

* * *

Can you tell me half-life for the items I'm about to list?
- Method Notes: Chemical stability of the compound in pH 9 phosphate buffer assessed as half life by HPLC method
- Assay type: physicochemical

CCCCOC(=O)C1=C(N)Oc2cc(O)ccc2C1c1ccc(OCCN2CCCCC2)cc1 (configuration not stated) = > 24 h

In: Fill blank: measured half-life of the molecule CCOC(=O)C1=C(N)Oc2cc(O)ccc2C1c1ccc(OCCN2CCCCC2)cc1 (configuration not stated) is ____.
Out: > 24 h

* * *

- Target Under Test: Estrogen receptor (Homo sapiens, UniProt P03372)
- Sequence (P03372 whole entry): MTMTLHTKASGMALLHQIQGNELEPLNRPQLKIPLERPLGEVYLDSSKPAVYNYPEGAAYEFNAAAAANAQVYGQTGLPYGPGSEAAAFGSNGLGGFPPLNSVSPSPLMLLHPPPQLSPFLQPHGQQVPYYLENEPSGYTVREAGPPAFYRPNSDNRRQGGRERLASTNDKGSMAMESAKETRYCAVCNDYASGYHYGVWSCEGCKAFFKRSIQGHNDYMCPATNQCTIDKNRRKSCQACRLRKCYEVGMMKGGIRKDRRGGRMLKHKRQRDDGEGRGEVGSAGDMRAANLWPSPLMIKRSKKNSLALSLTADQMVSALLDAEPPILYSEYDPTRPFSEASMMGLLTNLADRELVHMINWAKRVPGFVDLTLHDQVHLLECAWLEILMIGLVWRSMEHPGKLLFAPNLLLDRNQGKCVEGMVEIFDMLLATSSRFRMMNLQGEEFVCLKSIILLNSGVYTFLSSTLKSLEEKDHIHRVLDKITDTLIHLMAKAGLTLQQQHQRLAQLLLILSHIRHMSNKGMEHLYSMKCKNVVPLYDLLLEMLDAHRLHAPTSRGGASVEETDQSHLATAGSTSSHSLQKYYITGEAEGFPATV
- Method Notes: Displacement of fluorescent estrogen ligand from recombinant human full length untagged ERalpha expressed in baculovirus infected insect cells incubated in dark for 2 hrs by Beacon single-tube fluorescent polarization assay
Can you tell me IC50 for the items I'm about to list?
Answers are plain numbers, in nM.

Below are some molecules; for each one, tell me its IC50.
1. COC(=O)C1=C(N)Oc2cc(O)ccc2C1c1ccc(OCCN2CCCCC2)cc1 (stereo not drawn)
2. N#CC1=C(N)Oc2cc(O)ccc2C1c1ccc(OCCN2CCCC2)cc1 (stereo not drawn)
3. COC(=O)C1=C(N)Oc2cc(O)ccc2C1c1ccccc1 (stereo not drawn)
4. COC(=O)C1=C(N)Oc2cc(O)ccc2C1c1ccc(OCCN2CCOCC2)cc1 (stereo not drawn)

Out:
1: 50; 2: 890; 3: 3300; 4: 109000

* * *

Can you tell me IC50 for the items I'm about to list?
- Target Under Test: Estrogen receptor beta (Homo sapiens)
- Method Notes: Displacement of fluorescent estrogen ligand from recombinant human full length untagged ERbeta expressed in baculovirus infected insect cells incubated in dark for 2 hrs by Beacon single-tube fluorescent polarization assay
Give bare numbers, in nM.

CCOC(=O)C1=C(N)Oc2cc(O)ccc2C1c1ccc(OCCN2CCCCC2)cc1 (stereo not drawn) = 60

Now for another entry.
In: Fill blank: measured IC50 of the compound CCOC(=O)C1=C(N)Oc2cc(O)ccc2C1c1ccc(OCCN2CCOCC2)cc1 (stereo not drawn) is ____.
Out: 2440

Origin of the recorded values: ChEMBL document CHEMBL4627260
